- Tested on: Sweetpotato Whitefly-Crawler (Bemisia tabaci)
- experiment: Insecticidal test for Sweetpotato Whitefly-Crawler (WF) (BEMITA) in foliar spray assay on cotton plants
- Assay type: in vivo
- measurement_parameters: 216 h, 200 ppm foliar spray, graded after 9 days, Abbott corrected % control, read-out: % Control (or Mortality) rating, WF
I'd appreciate it if you could supply mortality at 200 ppm values for the items below.

// solved cases for mortality at 200 ppm follow
1. CC(C(=O)N(C)c1cn(-c2ccc[n+]([O-])c2)nc1Cl)S(C)(=O)=O (stereo not shown) | 80 to 100%
2. CCN(C(=O)CCSCC(F)(F)F)c1cn(-c2ccc[n+]([O-])c2)nc1Cl | 80 to 100%
3. C#CCN(C(=O)CC[S+]([O-])CCCC(F)(F)F)c1cn(-c2ccc[n+]([O-])c2)nc1Cl (stereo not shown) | 80 to 100%

Next compound, mortality at 200 ppm to be filled in.
Write down the reported mortality at 200 ppm (system: Sweetpotato Whitefly-Crawler (Bemisia tabaci)) of CCN(C(=O)CCS(=O)(=O)CCC(F)(F)F)c1cn(-c2ccc[n+]([O-])c2)nc1Cl
80 to 100%
